The reported measurements were obtained from patent US11230591.

Recorded Pair-wise inhibition (%) by entry
- study-system: recombinant pentameric gH complex (Towne strain) (human cytomegalovirus, Towne strain) (UniProt P17176)
- Sequence (P17176 30-715, one chain of several): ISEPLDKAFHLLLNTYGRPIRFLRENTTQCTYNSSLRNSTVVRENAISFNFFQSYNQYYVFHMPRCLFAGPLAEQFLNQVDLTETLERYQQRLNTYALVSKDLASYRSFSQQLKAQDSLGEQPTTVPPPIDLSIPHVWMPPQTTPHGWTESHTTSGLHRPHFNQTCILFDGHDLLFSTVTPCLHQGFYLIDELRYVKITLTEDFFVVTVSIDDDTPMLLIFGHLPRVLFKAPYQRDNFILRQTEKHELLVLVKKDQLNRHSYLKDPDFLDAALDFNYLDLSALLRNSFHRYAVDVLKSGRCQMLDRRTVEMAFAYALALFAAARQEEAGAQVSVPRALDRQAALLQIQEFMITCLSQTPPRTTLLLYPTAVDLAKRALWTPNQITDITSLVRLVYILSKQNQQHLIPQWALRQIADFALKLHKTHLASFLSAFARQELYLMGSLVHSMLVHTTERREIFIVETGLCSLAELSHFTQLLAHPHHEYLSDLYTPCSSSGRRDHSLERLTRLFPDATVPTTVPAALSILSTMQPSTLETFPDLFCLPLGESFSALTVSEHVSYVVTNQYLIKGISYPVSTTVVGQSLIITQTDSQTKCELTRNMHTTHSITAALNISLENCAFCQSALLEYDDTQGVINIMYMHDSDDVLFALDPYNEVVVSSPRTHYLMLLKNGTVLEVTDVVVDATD
- assay-explanation: BLI competition on His-pentamer; competitor (antibody 2): 2-18
Give the number; % is assumed, so skip it.

# count of solved cases: 2
binder: 1-103 (antibody, V domains shown) VH: QLQLQESGPGLVKPSETLSLTCSVSGDAISGSNYYWGWIRQPPGKGLQWIGSIYHTGSTFYNPSFSSRVTLSVDTSKNQFSLKLISVNAADTAVYYCARRIRGYSGTYDWGQGTLVTVSS VL: DIQLTQSPSFLSASVGDRVTITCRASQDISSYVAWYQQKPGNAPKLLISSASTLPSGVPSRFSGSRSGTDFTLTISSLQPEDFATYYCQQLNNFGPGTTVDIK
Pair-wise inhibition (%): -10
//
binder: 1-32 (antibody, V domains shown) VH: QVKLVESGGGVVQPGRSLRLSCAGSGFAFDNYAMHWVRQAPGKGLEWVAVISLEGRNKYYAGPAKGRFSISRDNSRNTVHLQMNSLRPEDTAVYFCARDMRYYYDSNGHYRNRYGMDVWGQGTTVIVSS VL: DIQMTQSPSSLSASVGDSVTITCQASQDINQFVSWYQQKPGKPPKLLIYDASNLESGVPSRFSGSGSGTHFTFTISSLQPDDIATYYCQQYENLFTFGPGTKVDIK
Pair-wise inhibition (%): -1

# context switch: different binder, same Pair-wise inhibition (%)
May I ask what Pair-wise inhibition (%) has been recorded for 1-85 (antibody, V domains shown) VH: QVHLVESGGGLVKPGRSLRLSCAASGFTFSDYYMAWIRQVPGKGLEWVSFISSSGRTIYYADSVKGRFTISRDNAKDSLYLQMHSLRAEDTAVYYCARDSYSKLVDIEAIEAFDIWGRGTMVTVSS VL: SYELAQPPSVSVAPGKTATIACGGDNIGGKSVHWYLQKAGQAPVLVISYDSDRPSGIPERFSGSNSGNTATLTISRVEAGDEADYFCQVWDRHGDHVVFGGGTKLTVL ?
14
